Recorded MIC, one value per entry.
System: HeLa
Assay: Minimum inhibitory concentration against Coxsackie virus B4 in HeLa cell cultures
Assay type: functional
Settings: Homo sapiens

>  <Smiles text>
CC(C)(C)[Si](C)(C)OC[C@H]1O[C@@H](n2cnc3c(N)ncnc32)[C@H](O[Si](C)(C)C(C)(C)C)[C@@H]1C#N

>  <MIC>
> 200 µg/mL

$$$$
>  <Smiles text>
Cc1cn([C@H]2C[C@H](C#N)[C@@H](CO)O2)c(=O)[nH]c1=O

>  <MIC>
> 100 µg/mL

$$$$
>  <Smiles text>
CC(C)(C)[Si](C)(C)OC[C@H]1O[C@@H](n2ccc(=O)[nH]c2=O)[C@H](O[Si](C)(C)C(C)(C)C)[C@@H]1C#N

>  <MIC>
> 10 µg/mL

$$$$
>  <Smiles text>
N#C[C@@H]1[C@@H](O)[C@H](n2cnc3c(N)ncnc32)O[C@@H]1CO

>  <MIC>
> 200 µg/mL

$$$$
>  <Smiles text>
N#C[C@@H]1[C@@H](O)[C@H](n2ccc(=O)[nH]c2=O)O[C@@H]1CO

>  <MIC>
> 200 µg/mL

$$$$

* * *

Species: Homo sapiens
Assay: Cytotoxic dose against uninfected human MT-4 cell
Assay type: functional
Settings: MT4, read-out: CD50 (the source's name)

>  <Compound>
Cc1cn([C@H]2C[C@H](C#N)[C@@H](CO)O2)c(=O)[nH]c1=O

>  <Cmp>
=

>  <CC50 (µM)>
30

$$$$
>  <Compound>
N#C[C@H]1[C@@H](O)[C@H](n2cnc3c(N)ncnc32)O[C@@H]1CO

>  <Cmp>
=

>  <CC50 (µM)>
3.8

$$$$
>  <Compound>
CC(C)(C)[Si](C)(C)OC[C@H]1O[C@@H](n2ccc(=O)[nH]c2=O)[C@H](O[Si](C)(C)C(C)(C)C)[C@@H]1C#N

>  <Cmp>
=

>  <CC50 (µM)>
6.6

$$$$
>  <Compound>
N#CC1C(CO)OC(n2ccc(N)nc2=O)C1O (stereo unspecified)

>  <Cmp>
=

>  <CC50 (µM)>
22.7

$$$$
>  <Compound>
N#C[C@@H]1[C@@H](O)[C@H](n2cnc3c(N)ncnc32)O[C@@H]1CO

>  <Cmp>
=

>  <CC50 (µM)>
2.9

$$$$
>  <Compound>
N#C[C@H]1[C@@H](O)[C@H](n2ccc(=O)[nH]c2=O)O[C@@H]1CO

>  <Cmp>
=

>  <CC50 (µM)>
147

$$$$
>  <Compound>
Cc1cn([C@H]2C[C@@H](C#N)[C@@H](CO)O2)c(=O)[nH]c1=O

>  <Cmp>
>

>  <CC50 (µM)>
250

$$$$
>  <Compound>
N#C[C@@H]1[C@@H](O)[C@H](n2ccc(=O)[nH]c2=O)O[C@@H]1CO

>  <Cmp>
>

>  <CC50 (µM)>
400

$$$$
>  <Compound>
CC(C)(C)[Si](C)(C)OC[C@H]1O[C@@H](n2ccc(=O)[nH]c2=O)[C@H](O[Si](C)(C)C(C)(C)C)[C@H]1C#N

>  <Cmp>
=

>  <CC50 (µM)>
1.6

$$$$
>  <Compound>
Cc1cn(C2OC(CO)C(C#N)C2O)c(=O)[nH]c1=O (stereo unspecified)

>  <Cmp>
=

>  <CC50 (µM)>
232

$$$$
>  <Compound>
CC(C)(C)[Si](C)(C)OC[C@H]1O[C@@H](n2cnc3c(N)ncnc32)[C@H](O[Si](C)(C)C(C)(C)C)[C@@H]1C#N

>  <Cmp>
=

>  <CC50 (µM)>
5.1

$$$$
>  <Compound>
CC(C)(C)[Si](C)(C)OC[C@H]1O[C@@H](n2cnc3c(N)ncnc32)[C@H](O[Si](C)(C)C(C)(C)C)[C@H]1C#N

>  <Cmp>
=

>  <CC50 (µM)>
25

$$$$
>  <Compound>
Cc1cn(C2CC(C#N)C(CO[Si](C)(C)C(C)(C)C)O2)c(=O)[nH]c1=O (stereo unspecified)

>  <Cmp>
=

>  <CC50 (µM)>
31

$$$$
>  <Compound>
CC(C)(C)[Si](C)(C)OCC1OC(n2ccc(N)nc2=O)C(O[Si](C)(C)C(C)(C)C)C1C#N (stereo unspecified)

>  <Cmp>
=

>  <CC50 (µM)>
6.1

$$$$
>  <Compound>
Cc1cn(C2C=C(C#N)C(CO)O2)c(=O)[nH]c1=O (stereo unspecified)

>  <Cmp>
=

>  <CC50 (µM)>
24

$$$$
>  <Compound>
CC(=O)Nc1ccn(C2OC(CO[Si](C)(C)C(C)(C)C)C(C#N)C2O[Si](C)(C)C(C)(C)C)c(=O)n1 (stereo unspecified)

>  <Cmp>
=

>  <CC50 (µM)>
4.8

$$$$

* * *

System: HeLa
Test: Minimum inhibitory concentration against Coxsackie virus B4 in HeLa cell cultures
Type: functional
Details: Homo sapiens
Measurement type: MIC (µg/mL)

>  <Compound>
NC(=O)c1ncn([C@@H]2O[C@H](CO)[C@@H](O)[C@H]2O)n1

>  <Assayed target>
HeLa

>  <Cmp>
=

>  <Quantitative result>
70

$$$$
>  <Compound>
Cc1cn(C2CC(C#N)C(CO[Si](C)(C)C(C)(C)C)O2)c(=O)[nH]c1=O (stereo not given)

>  <Assayed target>
HeLa

>  <Cmp>
>

>  <Quantitative result>
40

$$$$
>  <Compound>
Nc1nccc2c1ncn2[C@@H]1C[C@H](CO)[C@@H](O)[C@H]1O

>  <Assayed target>
HeLa

>  <Cmp>
>

>  <Quantitative result>
400

$$$$
>  <Compound>
Nc1ncnc2c1ccn2[C@@H]1O[C@H](CO)[C@@H](O)[C@H]1O

>  <Assayed target>
HeLa

>  <Cmp>
=

>  <Quantitative result>
0.4

$$$$
>  <Compound>
N#CC1C(CO)OC(n2ccc(N)nc2=O)C1O (stereo not given)

>  <Assayed target>
HeLa

>  <Cmp>
>

>  <Quantitative result>
40

$$$$

* * *

Assay: Minimum cytotoxic concentration in Vero cell cultures
Type: cell-based
Settings: chlorocebus sabaeus, Vero cells
Measurement type: MCC (µg/mL)

>  <Molecule>
Nc1nccc2c1ncn2[C@@H]1C[C@H](CO)[C@@H](O)[C@H]1O

>  <Cmp>
=

>  <Quantitative result>
400

$$$$
>  <Molecule>
N#C[C@H]1[C@@H](O)[C@H](n2cnc3c(N)ncnc32)O[C@@H]1CO

>  <Cmp>
=

>  <Quantitative result>
100

$$$$
>  <Molecule>
Cc1cn(C2CC(C#N)C(CO[Si](C)(C)C(C)(C)C)O2)c(=O)[nH]c1=O (stereo not drawn)

>  <Cmp>
>

>  <Quantitative result>
100

$$$$
>  <Molecule>
N#C[C@@H]1[C@@H](O)[C@H](n2cnc3c(N)ncnc32)O[C@@H]1CO

>  <Cmp>
=

>  <Quantitative result>
200

$$$$
>  <Molecule>
Cc1cn(C2OC(CO)C(C#N)C2O)c(=O)[nH]c1=O (stereo not drawn)

>  <Cmp>
>

>  <Quantitative result>
200

$$$$
>  <Molecule>
CC(C)(C)[Si](C)(C)OC[C@H]1O[C@@H](n2cnc3c(N)ncnc32)[C@H](O[Si](C)(C)C(C)(C)C)[C@@H]1C#N

>  <Cmp>
=

>  <Quantitative result>
10

$$$$
>  <Molecule>
Cc1cn(C2C=C(C#N)C(CO)O2)c(=O)[nH]c1=O (stereo not drawn)

>  <Cmp>
>

>  <Quantitative result>
100

$$$$
>  <Molecule>
CC(=O)Nc1ccn(C2OC(CO[Si](C)(C)C(C)(C)C)C(C#N)C2O[Si](C)(C)C(C)(C)C)c(=O)n1 (stereo not drawn)

>  <Cmp>
>

>  <Quantitative result>
4

$$$$
>  <Molecule>
Cc1cn([C@H]2C[C@@H](C#N)[C@@H](CO)O2)c(=O)[nH]c1=O

>  <Cmp>
>

>  <Quantitative result>
400

$$$$
>  <Molecule>
CC(C)(C)[Si](C)(C)OCC1OC(n2ccc(N)nc2=O)C(O[Si](C)(C)C(C)(C)C)C1C#N (stereo not drawn)

>  <Cmp>
=

>  <Quantitative result>
10

$$$$
>  <Molecule>
CC(C)(C)[Si](C)(C)OC[C@H]1O[C@@H](n2ccc(=O)[nH]c2=O)[C@H](O[Si](C)(C)C(C)(C)C)[C@@H]1C#N

>  <Cmp>
>

>  <Quantitative result>
10

$$$$
>  <Molecule>
N#C[C@H]1[C@@H](O)[C@H](n2ccc(=O)[nH]c2=O)O[C@@H]1CO

>  <Cmp>
>

>  <Quantitative result>
200

$$$$
>  <Molecule>
NC(=O)c1ncn([C@@H]2O[C@H](CO)[C@@H](O)[C@H]2O)n1

>  <Cmp>
>

>  <Quantitative result>
400

$$$$
>  <Molecule>
N#C[C@@H]1[C@@H](O)[C@H](n2ccc(=O)[nH]c2=O)O[C@@H]1CO

>  <Cmp>
=

>  <Quantitative result>
400

$$$$
>  <Molecule>
Cc1cn([C@H]2C[C@H](C#N)[C@@H](CO)O2)c(=O)[nH]c1=O

>  <Cmp>
>

>  <Quantitative result>
10

$$$$
>  <Molecule>
CC(C)(C)[Si](C)(C)OC[C@H]1O[C@@H](n2ccc(=O)[nH]c2=O)[C@H](O[Si](C)(C)C(C)(C)C)[C@H]1C#N

>  <Cmp>
=

>  <Quantitative result>
4

$$$$
>  <Molecule>
Nc1ncnc2c1ccn2[C@@H]1O[C@H](CO)[C@@H](O)[C@H]1O

>  <Cmp>
=

>  <Quantitative result>
0.4

$$$$
>  <Molecule>
N#CC1C(CO)OC(n2ccc(N)nc2=O)C1O (stereo not drawn)

>  <Cmp>
=

>  <Quantitative result>
200

$$$$
